Experimental details: Kinetic solubility of the compound in WEEV replication assay medium in presence of 10% fetal bovine serum
Assay type: physicochemical
Measurement conditions: WEEV replication assay medium with 10% fetal bovine serum; read-out: Kinetic_solubility
Measurement kind: solubility kinetic (mg/mL)
Give bare numbers, in mg/mL.

See these solved cases before continuing.
• O=C(NCCc1ccncc1)C1CCN(C(=O)c2ccccc2Oc2ccc(Cl)cc2)CC1 = 0.062
• O=C(NCCc1ccncc1)C1CCN(C(=O)c2ccccc2Cc2ccc(Cl)cc2)CC1 = 0.062
• O=C(NCCc1ccncc1)C1CCN(C(=O)c2cc3ccccc3n2Cc2ccc(Cl)cc2)CC1 = 0.031

Now turn to the next compound.
Entry O=C(NCCc1ccncc1)C1CCN(C(=O)c2cccn2Cc2ccc(Cl)cc2)CC1 has what solubility kinetic?
0.125
